molecular target: NET (Rattus norvegicus); construct: Cortex from rat brain was collected and homogenised; assay: In vitro determination of NET reuptake inhibition ([3H]Nixosetine binding, rat brain cortex membranes)
pIC50: −log10 of the molar value.

molecule: CN1C[C@H]2C[C@@H]3c4ccccc4Cc4ccc(F)cc4[C@H]3N2C1=O
experimental_target: NET (Rattus norvegicus)
censor_symbol: =
pIC50: 6.05
--
molecule: CN(C)CC1CO[C@@H]2c3cc(F)ccc3Cc3ccccc3[C@@H]12 (mixture of isomers)
experimental_target: NET (Rattus norvegicus)
censor_symbol: =
pIC50: 7.96
--
molecule: N[C@@H]1CO[C@H]2c3cc(F)ccc3Cc3ccccc3[C@H]2C1
experimental_target: NET (Rattus norvegicus)
censor_symbol: =
pIC50: 6.52
--
molecule: CN1C[C@@H]2C[C@@H]3c4ccccc4Cc4ccc(F)cc4[C@H]3N2C1
experimental_target: NET (Rattus norvegicus)
censor_symbol: =
pIC50: 6.94
--
molecule: COCCN1[C@@H](CN(C)C)C[C@@H]2c3ccccc3Cc3ccc(F)cc3[C@H]21
experimental_target: NET (Rattus norvegicus)
censor_symbol: =
pIC50: 6.32
--
molecule: CN1C[C@@H]2C[C@@H]3c4ccccc4Cc4ccc(F)cc4[C@H]3N2C1=O
experimental_target: NET (Rattus norvegicus)
censor_symbol: <
pIC50: 5.00
--
molecule: COC(=O)N1[C@@H](CN(C)C)CC[C@@H]2c3ccccc3Cc3ccc(F)cc3[C@H]21
experimental_target: NET (Rattus norvegicus)
censor_symbol: =
pIC50: 6.10
--
molecule: COC(=O)N1[C@@H](CN(C)C)C[C@@H]2c3ccccc3Cc3ccc(F)cc3[C@H]21 [36a]
experimental_target: NET (Rattus norvegicus)
censor_symbol: =
pIC50: 6.16

---

target: NET (Rattus norvegicus, UniProt Q63380); construct: Cortex from rat brain was collected and homogenised; from tissue; host or cells: rat brain cortex homogenate/membranes; experiment: In vitro determination of NET reuptake inhibition ([3H]Nixosetine binding, rat brain cortex membranes)
Sequence (Q63380 1-617): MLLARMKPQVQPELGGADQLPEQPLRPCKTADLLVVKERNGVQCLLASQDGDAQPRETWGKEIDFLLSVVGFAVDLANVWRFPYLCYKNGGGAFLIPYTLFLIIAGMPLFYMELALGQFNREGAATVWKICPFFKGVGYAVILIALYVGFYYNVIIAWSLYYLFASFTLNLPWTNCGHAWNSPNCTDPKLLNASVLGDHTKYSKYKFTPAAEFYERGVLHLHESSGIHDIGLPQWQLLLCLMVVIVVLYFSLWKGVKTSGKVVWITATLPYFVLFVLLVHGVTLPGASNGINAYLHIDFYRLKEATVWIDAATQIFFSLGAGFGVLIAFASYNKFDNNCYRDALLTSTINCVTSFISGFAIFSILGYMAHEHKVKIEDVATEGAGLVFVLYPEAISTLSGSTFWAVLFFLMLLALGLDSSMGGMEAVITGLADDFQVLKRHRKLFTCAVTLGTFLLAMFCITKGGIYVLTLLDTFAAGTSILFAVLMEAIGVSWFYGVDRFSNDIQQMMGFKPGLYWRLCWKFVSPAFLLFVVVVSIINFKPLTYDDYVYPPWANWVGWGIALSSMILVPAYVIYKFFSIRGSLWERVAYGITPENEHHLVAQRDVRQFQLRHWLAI
# yes = IC50 below 0.2 µM (exclusive); no = IC50 at/above 0.2 µM

compound: OC1CCN(C[C@H]2C[C@@H]3c4ccccc4Oc4ccc(F)cc4[C@H]3N2)C1 (some centres unmarked) [compound 20]
assigned_class: no
--
compound: CN(C)C[C@H]1C[C@@H]2c3ccccc3Oc3ccc(F)cc3[C@H]2N1 [compound 17]
assigned_class: yes
--
compound: O=C1CNC[C@H]2C[C@@H]3c4ccccc4Cc4ccc(F)cc4[C@H]3N12 [compound 12]
assigned_class: no
--
compound: CNC[C@H]1CC[C@@H]2c3ccccc3Cc3ccc(F)cc3[C@H]2O1 [compound 46]
assigned_class: no
--
compound: CN(C)CC1CO[C@H]2c3cc(F)ccc3Cc3ccccc3[C@@H]12 (mixture of isomers) [compound 48]
assigned_class: no
--
compound: OCCN1CCN(C[C@H]2C[C@@H]3c4ccccc4Cc4ccc(F)cc4[C@H]3N2)CC1 [43a]
assigned_class: no
--
compound: CN(C)C[C@H]1C[C@@H]2c3ccccc3Cc3ccc(F)cc3[C@H]2N1 [37a]
assigned_class: yes
--
compound: OCCN1CCN(C[C@H]2C[C@@H]3c4ccccc4Oc4ccc(F)cc4[C@H]3N2)CC1 [compound 19]
assigned_class: no

---

Target: human cloned 5-HT2C receptor, expressed in CHO cells (Homo sapiens)
Construct: expressed in transfected cells; host or cells: CHO cells
Sequence (P28335 33-458): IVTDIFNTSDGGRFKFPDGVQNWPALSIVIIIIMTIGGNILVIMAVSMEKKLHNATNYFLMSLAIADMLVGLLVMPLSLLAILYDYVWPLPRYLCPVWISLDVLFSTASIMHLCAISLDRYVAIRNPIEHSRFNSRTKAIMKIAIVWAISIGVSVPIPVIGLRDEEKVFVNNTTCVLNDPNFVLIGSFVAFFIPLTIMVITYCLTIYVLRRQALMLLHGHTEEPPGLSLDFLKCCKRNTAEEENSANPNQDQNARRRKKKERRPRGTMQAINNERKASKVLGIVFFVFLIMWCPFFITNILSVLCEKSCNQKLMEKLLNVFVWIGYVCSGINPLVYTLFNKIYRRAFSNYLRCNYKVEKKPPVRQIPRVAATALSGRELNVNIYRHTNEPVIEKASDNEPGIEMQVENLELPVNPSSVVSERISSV
Experiment: In vitro radioligand binding affinity for 5-HT2C receptor ([3H]mesulergine)
Experimental: In vitro Binding Affinity for 5-HT2A and 5-HT2C Receptors The interaction of the compounds of Formula (I) with 5-HT2A and 5-HT2C receptors was assessed in in vitro radioligand binding experiments. […] When equilibrium of binding is reached, the receptor bound radioactivity is separated from the non-bound radioactivity, and the receptor bound activity is counted. The interaction of the test compounds with the receptors is assessed in competition binding experiments. […]
Some compounds, each annotated with its measured IC50.

compound: CN(C)C[C@H]1C[C@@H]2c3ccccc3Cc3ccc(F)cc3[C@H]2N1C=O [36c]
censor_symbol: =
IC50, µM: 0.0776
//
compound: CN(CCO)C[C@H]1C[C@@H]2c3ccccc3Cc3ccc(F)cc3[C@H]2N1 [43b]
censor_symbol: =
IC50, µM: 0.0891
//
compound: COC(=O)N1[C@@H](CN(C)C)C[C@@H]2c3ccccc3Cc3ccc(F)cc3[C@H]21 [36a]
censor_symbol: >
IC50, µM: 1

---

molecular target: NET (Rattus norvegicus, UniProt Q63380); construct: Cortex from rat brain was collected and homogenised; from tissue; host or cells: rat brain cortex homogenate/membranes; assay: In vitro determination of NET reuptake inhibition ([3H]Nixosetine binding, rat brain cortex membranes)

mol_smiles: Fc1ccc2c(c1)[C@@H]1[C@H](C[C@H]3CNC(=S)N31)c1ccccc1C2
censor_symbol: =
NET Reuptake Inhibition: 5.24
--
mol_smiles: CN1CC(=O)N2[C@H](C[C@@H]3c4ccccc4Cc4ccc(F)cc4[C@H]32)C1
censor_symbol: <
NET Reuptake Inhibition: 5
--
mol_smiles: Fc1ccc2c(c1)[C@@H]1[C@H](C[C@@H]3CNC(=S)N31)c1ccccc1C2
censor_symbol: =
NET Reuptake Inhibition: 5.66
--
mol_smiles: CN1CC(=O)N2[C@@H](C[C@@H]3c4ccccc4Cc4ccc(F)cc4[C@H]32)C1
censor_symbol: <
NET Reuptake Inhibition: 5

---

target: NET (Rattus norvegicus, UniProt Q63380); construct: Cortex from rat brain was collected and homogenised; assay: In vitro determination of NET reuptake inhibition ([3H]Nixosetine binding, rat brain cortex membranes)
assay_metric: log10 IC50 (log10 of the value in nM)

molecule: CN(C)C[C@H]1C[C@@H]2c3ccccc3Cc3ccc(F)cc3[C@H]2S1
log10 IC50: 1.45
--
molecule: CN(C)C[C@H]1C[C@@H]2c3ccccc3Cc3ccc(F)cc3[C@H]2N1C
log10 IC50: 2.46
--
molecule: CSC1=NC[C@H]2C[C@@H]3c4ccccc4Cc4ccc(F)cc4[C@H]3N12
log10 IC50: 3.60
--
molecule: CC(=O)N1[C@@H](CN(C)C)C[C@@H]2c3ccccc3Cc3ccc(F)cc3[C@H]21 [36b]
log10 IC50: 3.59
--
molecule: O=C1NC[C@@H]2C[C@@H]3c4ccccc4Cc4ccc(F)cc4[C@H]3N12
log10 IC50: 3.38
--
molecule: CN(CCO)C[C@H]1C[C@@H]2c3ccccc3Cc3ccc(F)cc3[C@H]2N1 [43b]
log10 IC50: 1.20
--
molecule: CN(C)C[C@H]1C[C@@H]2c3ccccc3Cc3ccc(F)cc3[C@H]2N1C=O [36c]
log10 IC50: 2.35
--
molecule: CN(C)[C@@H]1CO[C@H]2c3cc(F)ccc3Cc3ccccc3[C@H]2C1
log10 IC50: 1.29

---

biological target: NET (Rattus norvegicus); construct: Cortex from rat brain was collected and homogenised; experiment: In vitro determination of NET reuptake inhibition ([3H]Nixosetine binding, rat brain cortex membranes)
pIC50: −log10 of the molar value.
Some compounds, each annotated with its measured pIC50.
assay_metric: pIC50

compound: Fc1ccc2c(c1)[C@H]1N[C@@H](CN3CCOCC3)C[C@@H]1c1ccccc1C2
censor_symbol: =
number: 5.26
//
compound: CN(C)C[C@H]1C[C@@H]2c3ccccc3Cc3ccc(F)cc3[C@H]2N1CCO
censor_symbol: =
number: 6.90
//
compound: CN[C@@H]1CO[C@@H]2c3cc(F)ccc3Cc3ccccc3[C@H]2C1 (relative stereo)
censor_symbol: <
number: 6.00
//
compound: CNC[C@H]1C[C@@H]2c3ccccc3Cc3ccc(F)cc3[C@H]2N1C=O
censor_symbol: =
number: 6.31
//
compound: CN(C)C[C@@H]1C[C@@H]2c3ccccc3Cc3ccc(F)cc3[C@H]2S1(=O)=O
censor_symbol: =
number: 5.32
//
compound: COCC(=O)N1[C@@H](CN(C)C)C[C@@H]2c3ccccc3Cc3ccc(F)cc3[C@H]21
censor_symbol: =
number: 5.32

---

Some compounds, each annotated with its measured IC50.
biological target: human cloned 5-HT2A receptor, expressed in L929 cells (Homo sapiens, UniProt P28223); construct: expressed in transfected cells; host or cells: L929 cells; assay: In vitro radioligand binding affinity for 5-HT2A receptor ([125I]R91150); conditions: read-out: h-5HT2A (converted)
Sequence (P28223 whole entry): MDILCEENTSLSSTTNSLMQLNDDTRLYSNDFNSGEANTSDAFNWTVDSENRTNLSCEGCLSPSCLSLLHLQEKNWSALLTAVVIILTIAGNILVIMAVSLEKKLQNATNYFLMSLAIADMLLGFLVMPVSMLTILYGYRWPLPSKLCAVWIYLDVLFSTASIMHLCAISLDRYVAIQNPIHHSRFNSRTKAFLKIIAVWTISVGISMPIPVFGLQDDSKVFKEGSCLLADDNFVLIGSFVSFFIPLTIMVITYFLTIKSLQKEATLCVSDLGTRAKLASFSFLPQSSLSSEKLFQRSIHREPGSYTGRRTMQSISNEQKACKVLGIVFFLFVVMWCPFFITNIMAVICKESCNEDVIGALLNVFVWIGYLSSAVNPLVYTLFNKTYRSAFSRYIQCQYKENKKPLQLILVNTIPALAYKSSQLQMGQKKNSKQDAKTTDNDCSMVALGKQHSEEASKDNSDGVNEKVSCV
assay_metric: IC50 (nM)

compound: CN(C)C[C@H]1C[C@@H]2c3ccccc3Cc3ccc(F)cc3[C@H]2N1C=O [36c]
experimental_target: human cloned 5-HT2A receptor, expressed in L929 cells (Homo sapiens, UniProt P28223)
censor_symbol: =
number: 550
--
compound: CN(CCO)C[C@H]1C[C@@H]2c3ccccc3Cc3ccc(F)cc3[C@H]2N1 [43b]
experimental_target: human cloned 5-HT2A receptor, expressed in L929 cells (Homo sapiens, UniProt P28223)
censor_symbol: =
number: 67.6
--
compound: COC(=O)N1[C@@H](CN(C)C)C[C@@H]2c3ccccc3Cc3ccc(F)cc3[C@H]21 [36a]
experimental_target: human cloned 5-HT2A receptor, expressed in L929 cells (Homo sapiens, UniProt P28223)
censor_symbol: >
number: 1000
--
compound: CN[C@@H]1CO[C@@H]2c3cc(F)ccc3Cc3ccccc3[C@H]2C1 (relative stereo)
experimental_target: human cloned 5-HT2A receptor, expressed in L929 cells (Homo sapiens, UniProt P28223)
censor_symbol: >
number: 1000
